Entry source: patent US20240327505A1

Known Pseudovirus Neturalization of a selection of binders
Test System: SARS-CoV-2 "Alpha" UK B.1.1.7 full-length Spike protein on pseudovirus (SARS-CoV-2, UniProt P0DTC2 14-1273)
Protocol Details: cell-based or functional assay
Readout: Pseudovirus Neturalization (µg/mL)

[[record]]
binder = "AB-009769 (antibody, V domains shown) VH: EVQLVESGGGLVQPGGSLRLSCAASGFTFSSYWMSWVRQAPGKGLEWVANIKQDGSEKYYVDSVKGRFTISRDNAKNSLYLQMNSLRAEDTAVYYCARSPEVLWFGDPVLDNWFDPWGQGTLVTVSS VL: SYELTQPPSVSVSPGQTARITCSGDALPKQYAYWYQQKPGQAPVLVIYKDSERPSGIPERFSGSSSGTTVTLTISGVQAEDEADYYCQSADSSGTYPVVFGGGTKLTVL"
unit_label = "µg/mL"
operator_symbol = ">"
endpoint_result = 50

[[record]]
binder = "AB-009346 (antibody, V domains shown) VH: EVQLVESGGGVVRPGGSLRLSCAASGFTFDDYGMSWVRQAPGKGLEWVSGINWNGGSTGYADSVKGRFTISRDNAKNSLYLQMNSLRAEDTALYYCARWPLLGISGYYHYYMDVWGKGTTVTVSS VL: QSALTQPRSVSGSPGQSVTISCTGTSSDVGGYNYVSWYQQHPGKAPKLMIYDVSKRPSGVPDRFSGSKSGNTASLTISGLQAEDEADYYCCSYAGSYTLLFGGGTKLIVL"
unit_label = "µg/mL"
operator_symbol = "="
endpoint_result = 0.114

[[record]]
binder = "AB-009271 (antibody, V domains shown) VH: EVQLVESGGGLIQPGGSLRLSCAASGFIVSSNYMSWVRQAPGKGLEWVSVIYSGGSTYYADSVKGRFTISRDNSKNTLYLQMNSLRAEDTAVYYCARDYGDFYFDYWGQGTLVTVSS VL: EIVMTQSPATLSVSPGERATLSCRASQSVSSNLAWYQQKPGQAPRLLIYGASTRATGIPARFSGSGSGTEFTLTISSLQSEDFAVYYCQQYYNWPRTFGQGTKVEIK"
unit_label = "µg/mL"
operator_symbol = "="
endpoint_result = 0.275

[[record]]
binder = "AB-009281 (antibody, V domains shown) VH: EVQLVETGGGLIQPGGSLRLSCAASGFTVSSNYMSWVRQAPGKGLEWVSVIYSGGSTYYADSVKGRFTISRDNSKNTLYLQMNSLRAEDTAVYYCARDLYYYGMDVWGQGTTVTVSS VL: DIQLTQSPSFLSASVGDRVTITCRASQGISSYLAWYQQKPGKAPKLLIYAASTLQSGVPSRFSGSGSGTEFTLTISSLQPEDFATYYCQQLNSYPTFGQGTKVEIK"
unit_label = "µg/mL"
operator_symbol = ">"
endpoint_result = 50

[[record]]
binder = "AB-009620 (antibody, V domains shown) VH: QITLKESGPTLVKPTQTLTLTCTFSGFSLSTSGVGVGWIRQPPGKALEWLALIYWDDDKRYSPSLKSRLTITKDTSKNQVVLTMTNMDPVDTATYYCAHHEVATVFDYWGQGTLVTVSS VL: QSALTQPASVSGSPGQSITISCTGTSSDVGAYNYVSWYQQHPGKAPKLMIYEVSNRPSGVSNRFSGSKSGNTASLTISGLQAEDEADYYCSSYTSSSTVFGGGTKLTVL"
unit_label = "µg/mL"
operator_symbol = "="
endpoint_result = 0.257

[[record]]
binder = "AB-009734 (antibody, V domains shown) VH: QVHLVQSGAEVKTPGASVRVSCKASGYTFTSHYMHWVRQAPGQGLEWMGLINPSGSGTAYPQHFQGRVTMTRDTSTTTDYMDLSSLRSEDTAMYFCARMERSGAFDLWGQGTMVTVSS VL: EIVLTQSPGTLSLSPGERATLSCRASQTISSRYLAWYYQKPGQAPRLLIQGSSIRATGIPDRFSGSGSGTDFTLTISRLEPEDFAVYYCQHYGSSPPMYTFGQGTKLEIK"
unit_label = "µg/mL"
operator_symbol = ">"
endpoint_result = 50

